System: 994946-033-R-J1-PDC complex spheroid viability
assay-overview: Anticancer human tumor 994946-033-R-J1-PDC patient-derived melanoma cell line growth inhibition [POLQ]
run-parameters: second compound 10 µM; first compound 0.0316 µM; active compounds read low

- compound: "COc1cccc(OCCCN)c1-c1cc(Nc2cnc(C#N)cn2)n[nH]1 + COC1C(OC(N)=O)C(O)C(Oc2ccc3c(O)c(NC(=O)c4ccc(O)c(CC=C(C)C)c4)c(=O)oc3c2C)OC1(C)C"
  viability, T/C [%]: 18.9
- compound: "COc1cccc2c1C(=O)c1c(O)c3c(c(O)c1C2=O)CC(O)(C(=O)CO)CC3OC1CC(N)C(O)C(C)O1 (stereo not given) + COC1C(OC(N)=O)C(O)C(Oc2ccc3c(O)c(NC(=O)c4ccc(O)c(CC=C(C)C)c4)c(=O)oc3c2C)OC1(C)C"
  viability, T/C [%]: 29.2
- compound: "Nc1ccn(C2OC(CO)C(O)C2(F)F)c(=O)n1 (stereo not given) + COC1C(OC(N)=O)C(O)C(Oc2ccc3c(O)c(NC(=O)c4ccc(O)c(CC=C(C)C)c4)c(=O)oc3c2C)OC1(C)C"
  viability, T/C [%]: 19.9
- compound: "CC(C)n1c(=O)n(C)c2cnc3cc(F)c(-c4ccc(OCCCN5CCCCC5)nc4)cc3c21 + Cc1cccc(N(C)C(=O)C2C(O)CCN2c2nc(C)cc(C(F)(F)F)c2C#N)c1"
  viability, T/C [%]: 109
- compound: "O=C(Nc1ccc(O)c(NS(=O)(=O)c2ccc(F)cc2)c1)c1ccc(-c2ccccc2)cc1 + Nc1ccc(C#CCN(C(=O)Cc2ncc(C(F)(F)F)cc2C(F)(F)F)c2ccc(F)cc2)nn1"
  viability, T/C [%]: 78.7

* * *

System: 994946-033-R-J1-PDC complex spheroid viability
assay-overview: Anticancer human tumor 994946-033-R-J1-PDC cell line growth inhibition [POLQ];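 also: spheroids exposed to drugs for 7 days; 100% = DMSO vehicle treated spheroids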
run-parameters: second compound 0.316 µM; first compound 0.1 µM; active compounds read low
Reported values of viability, T/C for individual entries
recorded-endpoint: viability, T/C (%)

- compound: "CC[C@@]1(O)C(=O)OCc2c1cc1n(c2=O)Cc2cc3c(CN(C)C)c(O)ccc3nc2-1 + Cc1cccc(N(C)C(=O)C2C(O)CCN2c2nc(C)cc(C(F)(F)F)c2C#N)c1"
  units-label: "%"
  recorded-measurement: 12.1
- compound: "CCc1cc2c(N3CCc4c(cc(Cn5ccnc5)cc4-c4cn(C)nc4C(F)(F)F)C3=O)ccnc2c(OC)n1 + Cc1cccc(N(C)C(=O)C2C(O)CCN2c2nc(C)cc(C(F)(F)F)c2C#N)c1"
  units-label: "%"
  recorded-measurement: 94.2
- compound: "O=C(c1cc(Cc2n[nH]c(=O)c3ccccc23)ccc1F)N1CCN(C(=O)C2CC2)CC1 + Nc1ccc(C#CCN(C(=O)Cc2ncc(C(F)(F)F)cc2C(F)(F)F)c2ccc(F)cc2)nn1"
  units-label: "%"
  recorded-measurement: 84.9
- compound: "Nc1ccn(C2OC(CO)C(O)C2(F)F)c(=O)n1 (configuration not stated) + Cc1cccc(N(C)C(=O)C2C(O)CCN2c2nc(C)cc(C(F)(F)F)c2C#N)c1"
  units-label: "%"
  recorded-measurement: 5.51
- compound: "CC1COCCN1c1cc(C2(S(C)(=N)=O)CC2)nc(-c2ccnc3[nH]ccc23)n1 (configuration not stated) + Cc1cccc(N(C)C(=O)C2C(O)CCN2c2nc(C)cc(C(F)(F)F)c2C#N)c1"
  units-label: "%"
  recorded-measurement: 117
- compound: "O=c1[nH]cc(F)c(=O)[nH]1 + COC1C(OC(N)=O)C(O)C(Oc2ccc3c(O)c(NC(=O)c4ccc(O)c(CC=C(C)C)c4)c(=O)oc3c2C)OC1(C)C"
  units-label: "%"
  recorded-measurement: 99.6
- compound: "O=C(c1cc(Cc2n[nH]c(=O)c3ccccc23)ccc1F)N1CCN(C(=O)C2CC2)CC1 + Cc1cccc(N(C)C(=O)C2C(O)CCN2c2nc(C)cc(C(F)(F)F)c2C#N)c1"
  units-label: "%"
  recorded-measurement: 95.3

* * *

Tested on: 994946-033-R-J1-PDC complex spheroid viability
assay-overview: Anticancer human tumor 994946-033-R-J1-PDC cell line growth inhibition [POLQ];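 also: spheroids exposed to drugs for 7 days; 100% = DMSO vehicle treated spheroids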
run-parameters: second compound 10 µM; first compound 0.0316 µM; active compounds read low
# strict inequality: viability, T/C < 70% yields yes (1), everything else yields no (0)

- compound: "CC1COCCN1c1cc(C2(O)CC3CCC(C2)O3)c2cnn(-c3ccn[nH]3)c2n1 (stereo not given) + Nc1ccc(C#CCN(C(=O)Cc2ncc(C(F)(F)F)cc2C(F)(F)F)c2ccc(F)cc2)nn1"
  cat: "yes (1)"
- compound: "O=C(c1cc(Cc2n[nH]c(=O)c3ccccc23)ccc1F)N1CCN(C(=O)C2CC2)CC1 + Nc1ccc(C#CCN(C(=O)Cc2ncc(C(F)(F)F)cc2C(F)(F)F)c2ccc(F)cc2)nn1"
  cat: "yes (1)"
- compound: "CC1COCCN1c1cc(-c2ccnn2C)c2ccnc(-c3ccn[nH]3)c2n1 (stereo not given) + Nc1ccc(C#CCN(C(=O)Cc2ncc(C(F)(F)F)cc2C(F)(F)F)c2ccc(F)cc2)nn1"
  cat: "no (0)"
- compound: "Cn1ncnc1[C@H]1c2n[nH]c(=O)c3cc(F)cc(c23)N[C@@H]1c1ccc(F)cc1 + Nc1ccc(C#CCN(C(=O)Cc2ncc(C(F)(F)F)cc2C(F)(F)F)c2ccc(F)cc2)nn1"
  cat: "yes (1)"
- compound: "COc1ccc([C@@H](O)c2cc(-c3ncnc4cc(N5CCOCC5)ccc34)c(F)cc2Cl)nn1 + Cc1cccc(N(C)C(=O)C2C(O)CCN2c2nc(C)cc(C(F)(F)F)c2C#N)c1"
  cat: "no (0)"

* * *

Test system: 994946-033-R-J1-PDC complex spheroid viability
assay-overview: Anticancer human tumor 994946-033-R-J1-PDC cell line growth inhibition [POLQ];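 also: spheroids exposed to drugs for 7 days; 100% = DMSO vehicle treated spheroids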
run-parameters: second compound 3.16 µM; first compound 0.0316 µM; active compounds read low

- compound: "CCc1cc2c(N3CCc4c(cc(Cn5ccnc5)cc4-c4cn(C)nc4C(F)(F)F)C3=O)ccnc2c(OC)n1 + Cc1cccc(N(C)C(=O)C2C(O)CCN2c2nc(C)cc(C(F)(F)F)c2C#N)c1"
  experimental-system: "994946-033-R-J1-PDC complex spheroid viability"
  viability, T/C (%): 92.4
- compound: "CC1COCCN1c1cc(C2(S(C)(=N)=O)CC2)nc(-c2ccnc3[nH]ccc23)n1 (stereo not drawn) + Nc1ccc(C#CCN(C(=O)Cc2ncc(C(F)(F)F)cc2C(F)(F)F)c2ccc(F)cc2)nn1"
  experimental-system: "994946-033-R-J1-PDC complex spheroid viability"
  viability, T/C (%): 113
- compound: "O=C(c1cc(Cc2n[nH]c(=O)c3ccccc23)ccc1F)N1CCN(C(=O)C2CC2)CC1 + Nc1ccc(C#CCN(C(=O)Cc2ncc(C(F)(F)F)cc2C(F)(F)F)c2ccc(F)cc2)nn1"
  experimental-system: "994946-033-R-J1-PDC complex spheroid viability"
  viability, T/C (%): 94.8

* * *

Tested on: 994946-033-R-J1-PDC complex spheroid viability
assay-overview: Anticancer human tumor 994946-033-R-J1-PDC cell line growth inhibition [POLQ];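 also: spheroids exposed to drugs for 7 days; 100% = DMSO vehicle treated spheroids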
run-parameters: second compound 0.0316 µM; first compound 0.01 µM; active compounds read low
recorded-endpoint: viability, T/C

- molecule: "C=CCn1c(=O)c2cnc(Nc3ccc(N4CCN(C)CC4)cc3)nc2n1-c1cccc(C(C)(C)O)n1 + COC1C(OC(N)=O)C(O)C(Oc2ccc3c(O)c(NC(=O)c4ccc(O)c(CC=C(C)C)c4)c(=O)oc3c2C)OC1(C)C"
  recorded-endpoint: "viability, T/C"
  recorded-measurement: "115%"
- molecule: "CCc1c2c(nc3ccc(O)cc13)-c1cc3c(c(=O)n1C2)COC(=O)[C@]3(O)CC + Nc1ccc(C#CCN(C(=O)Cc2ncc(C(F)(F)F)cc2C(F)(F)F)c2ccc(F)cc2)nn1"
  recorded-endpoint: "viability, T/C"
  recorded-measurement: "13.4%"
- molecule: "COc1cccc(OCCCN)c1-c1cc(Nc2cnc(C#N)cn2)n[nH]1 + Cc1cccc(N(C)C(=O)C2C(O)CCN2c2nc(C)cc(C(F)(F)F)c2C#N)c1"
  recorded-endpoint: "viability, T/C"
  recorded-measurement: "93.4%"
- molecule: "CCc1c2c(nc3ccc(O)cc13)-c1cc3c(c(=O)n1C2)COC(=O)[C@]3(O)CC + COC1C(OC(N)=O)C(O)C(Oc2ccc3c(O)c(NC(=O)c4ccc(O)c(CC=C(C)C)c4)c(=O)oc3c2C)OC1(C)C"
  recorded-endpoint: "viability, T/C"
  recorded-measurement: "10.5%"
- molecule: "COc1cccc(OCCCN)c1-c1cc(Nc2cnc(C#N)cn2)n[nH]1 + Nc1ccc(C#CCN(C(=O)Cc2ncc(C(F)(F)F)cc2C(F)(F)F)c2ccc(F)cc2)nn1"
  recorded-endpoint: "viability, T/C"
  recorded-measurement: "66.9%"
